assay: Apparent permeability coefficient (Papp) (Caco-2 cell monolayer); format: ADME, cell-based; details: human
Where a SMILES comes first, the peptide text is derived from it.
One threshold, 0.2 ×10⁻⁶ cm/s, splits the recorded Papp values: lower ones are YES, equal or higher ones are NO.

Req: For N=C(N)NC(=O)c1nc(Cl)c(N)nc1N [AMILORIDE] , is the recorded Papp below the cut-off of 0.2 ×10⁻⁶ cm/s?
Resp: NO

Req: For Cc1cc(=O)n(-c2ccccc2)n1C [ANTIPYRINE] , is the recorded Papp below the cut-off of 0.2 ×10⁻⁶ cm/s?
Resp: NO

Req: For CCCc1nn(C)c2c(=O)[nH]c(-c3cc(S(=O)(=O)N4CCN(C)CC4)ccc3OCC)nc12 , is the recorded Papp below the cut-off of 0.2 ×10⁻⁶ cm/s?
Resp: NO

Req: For O=C(O)c1cc(/N=N/c2ccc(S(=O)(=O)Nc3ccccn3)cc2)ccc1O , is the recorded Papp below the cut-off of 0.2 ×10⁻⁶ cm/s?
Resp: YES

Req: For COCCc1ccc(OCC(O)CNC(C)C)cc1 (stereo not drawn) , is the recorded Papp below the cut-off of 0.2 ×10⁻⁶ cm/s?
Resp: NO

Req: For OC[C@H]1O[C@@H](O[C@@H]2[C@@H](CO)O[C@](O)(CO)[C@H]2O)[C@H](O)[C@@H](O)[C@H]1O , is the recorded Papp below the cut-off of 0.2 ×10⁻⁶ cm/s?
Resp: NO

Req: For NC(=O)[C@H](Cc1ccccc1)NC(=O)[C@H](Cc1ccccc1)NC(=O)[C@H](CCCN=C(N)N)NC(=O)[C@@H](N)Cc1ccc(O)cc1 (H-YRFF-NH2) , is the recorded Papp below the cut-off of 0.2 ×10⁻⁶ cm/s?
Resp: YES

Req: For CN/C(=N/CCSCc1nc[nH]c1C)NC#N , is the recorded Papp below the cut-off of 0.2 ×10⁻⁶ cm/s?
Resp: NO

Req: For CCN1CCCC1CNC(=O)c1cc(S(N)(=O)=O)ccc1OC (stereo not drawn) [SULPIRIDE] , is the recorded Papp below the cut-off of 0.2 ×10⁻⁶ cm/s?
Resp: NO

Req: For OC[C@H]1O[C@H](OC[C@H]2O[C@H](O[C@]3(CO)O[C@H](CO)[C@@H](O)[C@@H]3O)[C@H](O)[C@@H](O)[C@@H]2O)[C@H](O)[C@@H](O)[C@H]1O , is the recorded Papp below the cut-off of 0.2 ×10⁻⁶ cm/s?
Resp: YES

Req: For C=CCOc1ccccc1OCC(O)CNC(C)C (stereo not drawn) , is the recorded Papp below the cut-off of 0.2 ×10⁻⁶ cm/s?
Resp: NO

Req: For CC(=O)Nc1ccc(OCC(O)CNC(C)C)cc1 (stereo not drawn) , is the recorded Papp below the cut-off of 0.2 ×10⁻⁶ cm/s?
Resp: NO

Req: For Cc1ccccc1N1C(=O)c2cc(S(N)(=O)=O)c(Cl)cc2NC1C (stereo not drawn) , is the recorded Papp below the cut-off of 0.2 ×10⁻⁶ cm/s?
Resp: NO

Req: For OC[C@@H](O)[C@@H](O)[C@H](O)[C@H](O)CO , is the recorded Papp below the cut-off of 0.2 ×10⁻⁶ cm/s?
Resp: YES

Req: For O=C(O)P(=O)(O)O , is the recorded Papp below the cut-off of 0.2 ×10⁻⁶ cm/s?
Resp: YES

Req: For CC(C)NCC(O)COc1cccc2[nH]ccc12 (stereo not drawn) , is the recorded Papp below the cut-off of 0.2 ×10⁻⁶ cm/s?
Resp: NO

Req: For C[C@H](NC(=O)[C@@H](N)Cc1ccc(O)cc1)C(=O)N[C@@H](Cc1ccccc1)C(=O)N[C@@H](Cc1ccccc1)C(N)=O (H-YAFF-NH2) , is the recorded Papp below the cut-off of 0.2 ×10⁻⁶ cm/s?
Resp: YES

Req: For C=CCc1ccccc1OCC(O)CNC(C)C (stereo not drawn) , is the recorded Papp below the cut-off of 0.2 ×10⁻⁶ cm/s?
Resp: NO

###

assay: Cellular permeability (Pc) (Caco-2 cell monolayer); assay type: ADME; details: human, read-out: Pc
Where a SMILES comes first, the peptide text is derived from it.
Would you kindly list Papp for each of these compounds?
The answer is to be given in ×10⁻⁶ cm/s; state only the numeric part.

Req: Given Cc1ccccc1N1C(=O)c2cc(S(N)(=O)=O)c(Cl)cc2NC1C (stereo not drawn) , respond with its Papp.
Resp: 6.1

Req: Given CN/C(=N/CCSCc1nc[nH]c1C)NC#N , respond with its Papp.
Resp: 1.2

Req: Given N=C(N)NC(=O)c1nc(Cl)c(N)nc1N [AMILORIDE] , respond with its Papp.
Resp: 0.78

Req: Given CCCc1nn(C)c2c(=O)[nH]c(-c3cc(S(=O)(=O)N4CCN(C)CC4)ccc3OCC)nc12 , respond with its Papp.
Resp: 87

Req: Given O=C(O)c1cc(/N=N/c2ccc(S(=O)(=O)Nc3ccccn3)cc2)ccc1O , respond with its Papp.
Resp: 0.16

Req: Given C[C@H](NC(=O)[C@@H](N)Cc1ccc(O)cc1)C(=O)N[C@@H](Cc1ccccc1)C(=O)N[C@@H](Cc1ccccc1)C(N)=O (H-YAFF-NH2) , respond with its Papp.
Resp: 0.022

Req: Given NC(=O)[C@H](Cc1ccccc1)NC(=O)[C@H](Cc1ccccc1)NC(=O)[C@H](CCCN=C(N)N)NC(=O)[C@@H](N)Cc1ccc(O)cc1 (H-YRFF-NH2) , respond with its Papp.
Resp: 0.023

Req: Given OC[C@@H](O)[C@@H](O)[C@H](O)[C@H](O)CO , respond with its Papp.
Resp: 0.19

###

species on record: Homo sapiens; test: Ratio of [(apical to basal)/(basal to apical)] (Caco-2 cell monolayer); assay type: ADME
Where a SMILES comes first, the peptide text is derived from it.
One threshold, 0.7, splits the recorded Ratio values: lower ones are true (1), equal or higher ones are false (0).

Req: For CCCc1nn(C)c2c(=O)[nH]c(-c3cc(S(=O)(=O)N4CCN(C)CC4)ccc3OCC)nc12 , is the recorded Ratio below the cut-off of 0.7?
Resp: false (0)

Req: For O=C(O)c1cc(/N=N/c2ccc(S(=O)(=O)Nc3ccccn3)cc2)ccc1O [SULFASALAZINE] , is the recorded Ratio below the cut-off of 0.7?
Resp: true (1)

Req: For Cc1ccccc1N1C(=O)c2cc(S(N)(=O)=O)c(Cl)cc2NC1C (centres undefined) [METOLAZONE] , is the recorded Ratio below the cut-off of 0.7?
Resp: true (1)

Req: For COCCc1ccc(OCC(O)CNC(C)C)cc1 (centres undefined) [METOPROLOL] , is the recorded Ratio below the cut-off of 0.7?
Resp: false (0)

Req: For NC(=O)[C@H](Cc1ccccc1)NC(=O)[C@H](Cc1ccccc1)NC(=O)[C@H](CCCN=C(N)N)NC(=O)[C@@H](N)Cc1ccc(O)cc1 (H-YRFF-NH2) , is the recorded Ratio below the cut-off of 0.7?
Resp: true (1)

Req: For Cc1cc(=O)n(-c2ccccc2)n1C [ANTIPYRINE] , is the recorded Ratio below the cut-off of 0.7?
Resp: false (0)

Req: For O=C(O)P(=O)(O)O [FOSCARNET] , is the recorded Ratio below the cut-off of 0.7?
Resp: true (1)

###

Would you kindly list Ratio for each of these compounds?
species: Homo sapiens; experiment: Ratio of [(apical to basal)/(basal to apical)] (Caco-2 cell monolayer); assay type: ADME
# print the numeric value only

Req: Given OC[C@H]1O[C@@H](O[C@@H]2[C@@H](CO)O[C@](O)(CO)[C@H]2O)[C@H](O)[C@@H](O)[C@H]1O [LACTULOSE] , respond with its Ratio.
Resp: 1.4

Req: Given OC[C@@H](O)[C@@H](O)[C@H](O)[C@H](O)CO [MANNITOL] , respond with its Ratio.
Resp: 0.89

Req: Given OC[C@H]1O[C@H](OC[C@H]2O[C@H](O[C@]3(CO)O[C@H](CO)[C@@H](O)[C@@H]3O)[C@H](O)[C@@H](O)[C@@H]2O)[C@H](O)[C@@H](O)[C@H]1O [RAFFINOSE] , respond with its Ratio.
Resp: 1.2

Req: Given CN/C(=N/CCSCc1nc[nH]c1C)NC#N [CIMETIDINE] , respond with its Ratio.
Resp: 1.8
